System: Nucleic Acid
Experiment: Concentration required to displace 50% of the ethidium from a preformed, intercalated complex
Format: nucleic-acid assay
MEASURE: C50 (µM)
State the answer as a number, implicitly in µM.

Example entries begin here.
* Cn1cc(NC(=O)c2cc(NC(=O)c3cc(NC=O)cn3C)cn2C)cc1C(=O)NCCC(=N)N | 1.8
* OC1CN(Cc2ccc(OCCCOc3ccc(CN4C[C@@H](O)[C@@H](O)[C@H](O)[C@H](O)C4)cc3)cc2)C[C@@H](O)[C@@H](O)C1O (single isomer, unassigned) | 61.6
* OC1CN(Cc2ccc(OCCCOc3ccc(CN4C[C@H](O)[C@@H](O)[C@H](O)[C@@H](O)C4)cc3)cc2)C[C@H](O)[C@@H](O)C1O (single isomer, unassigned) | 97
* CC1(C)O[C@H]2[C@H](O1)[C@H](O)CN(c1ccc(OCCCOc3ccc(N4C[C@@H](O)[C@H]5OC(C)(C)O[C@@H]5[C@H](O)C4)cc3)cc1)C[C@H]2O | 703

// `N=C(N)c1ccc(OCCCOc2ccc(C(=N)N)cc2)cc1` : C50 value = 25.6

====

Tested on: Nucleic Acid
Test: Apparent binding constant was calculated
Type: nucleic-acid assay
Everything with K app lower than 200000 M⁻¹ is FALSE; everything else, including exactly 200000 M⁻¹, is TRUE.

* N=C(N)c1ccc(OCCCOc2ccc(C(=N)N)cc2)cc1 | TRUE
* CC1(C)O[C@H]2[C@H](O1)[C@H](O)CN(c1ccc(OCCCOc3ccc(N4C[C@@H](O)[C@H]5OC(C)(C)O[C@@H]5[C@H](O)C4)cc3)cc1)C[C@H]2O | FALSE
* OC1CN(Cc2ccc(OCCCOc3ccc(CN4C[C@@H](O)[C@@H](O)[C@H](O)[C@H](O)C4)cc3)cc2)C[C@@H](O)[C@@H](O)C1O (single isomer, unassigned) | FALSE
* Cn1cc(NC(=O)c2cc(NC(=O)c3cc(NC=O)cn3C)cn2C)cc1C(=O)NCCC(=N)N | TRUE

IN: Form field: K app at least 200000 M⁻¹? Entry: OC1CN(Cc2ccc(OCCCOc3ccc(CN4C[C@H](O)[C@@H](O)[C@H](O)[C@@H](O)C4)cc3)cc2)C[C@H](O)[C@@H](O)C1O (single isomer, unassigned)
OUT: FALSE

The values you see were collected from ChEMBL document CHEMBL1135379.
